- Assay Comment: Intact half-life during simulated gastric fluid (SGF) digestion
- Particulars: SGF pH 1.5, pepsin:polypeptide 1:20 w/w, 37° C.; produced in E. coli unless otherwise noted
Reported SGF Half-life (t½) values are given for each entry in this list.
Express the result in min but write the number alone.

Guide cases for SGF Half-life (t½), answers given:
Molecule: SEQID-00485: nutritive polypeptide naturally produced in Chickpea, recombinantly expressed in E. coli (protein, listed as Cicer arietinum) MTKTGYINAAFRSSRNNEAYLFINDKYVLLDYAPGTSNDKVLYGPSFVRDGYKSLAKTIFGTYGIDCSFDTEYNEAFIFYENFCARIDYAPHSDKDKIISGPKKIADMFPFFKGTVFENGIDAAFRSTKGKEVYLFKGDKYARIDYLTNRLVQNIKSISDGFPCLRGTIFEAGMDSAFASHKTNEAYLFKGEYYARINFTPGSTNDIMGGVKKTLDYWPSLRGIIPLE
SGF Half-life (t½) [min]: 0.5
--
Molecule: SEQID-00678 (BS): nutritive polypeptide (protein, listed as Saccharomyces cerevisiae, strain ATCC 204508 / S288c) MSSSESIRMVLIGPPGAGKGTQAPNLQERFHAAHLATGDMLKSQIAKGTQLGLEAKKIMDQGGLVSDDIMVNMIKDELTNNPACKNGFILDGFPRTIPQAEKLDQMLKEQGTPLEKAIELKVDDELLVARITGRLIHPASGRSYHKIFNPPKEDMKDDVTGEALVQRSDDNADALKKRLAAYHAQTEPIVDFYKKTGIWAGVDASQPPATVWADILNKLGKD
SGF Half-life (t½) [min]: 0.2
--
Molecule: SEQID-00265: nutritive polypeptide (protein, listed as Bos taurus) SEGDRLRVELAEKANKLQNELDNVSTLLEEAEKKGIKFAKDAAGLESQLQDTQELLQEETRQKLNLSSRIRQLEEERSSLQEQQEEEEEARRSLEKQLQALQAQLTDTKKKVDDDLGTIENLEEAKKKLLKDVEVLSQRLEEKALAYDKLEKTKTRLQQELDDLLVDLDHQRQIVSNLEKKQKKFDQLLAEEKNISARYAEERDRAEAEAREKETKALSLARALEEALEAREEAERQNKQLRADMEDLMSSKDDVGKNVHELEKSKRALE
SGF Half-life (t½) [min]: 29
--
Molecule: SEQID-00269: nutritive polypeptide (protein) DLKKKLDDDLGTLENLEELKKKLLKDLELLSQRLEELALAYDKLEKTKTRLQQELDDLLLDLDHQ
SGF Half-life (t½) [min]: 41

Could you now look at the following molecule, please?
Prompt: Entry SEQID-00100: nutritive polypeptide (protein, listed as Lactobacillus acidophilus) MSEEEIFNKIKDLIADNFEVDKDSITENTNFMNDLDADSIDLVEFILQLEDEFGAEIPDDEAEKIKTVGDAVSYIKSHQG : reported SGF Half-life (t½) = ?
Completion: 2
